Tested on: dog hepatocytes
Experiment: Metabolism and metabolite formation in hepatocytes
Assay type: in vitro ADME, beagle dog
Conditions: beagle dog hepatocytes, 10 µM BPI-460372, 4 h incubation
parameter: UV (314 nm) Peak Areas Relative Abundance

Please review the entries below; each comes with its answer.
1) CC(=O)NC(CSCC(F)C(=O)N1CC(n2c(=O)n(-c3ccc(C(F)(F)F)cc3)c3nccnc32)C1)C(=O)O (centres unmarked)
2.44%
2) O=C(C(O)CO)N1CC(n2c(=O)n(-c3ccc(C(F)(F)F)cc3)c3nccnc32)C1 (centres unmarked)
+
3) NC(CCC(=O)NC(CSCC(F)C(=O)N1CC(n2c(=O)n(-c3ccc(C(F)(F)F)cc3)c3nccnc32)C1)C(=O)NCC(=O)O)C(=O)O (centres unmarked)
22.65%
4) NC(CSCC(F)C(=O)N1CC(n2c(=O)n(-c3ccc(C(F)(F)F)cc3)c3nccnc32)C1)C(=O)O (centres unmarked)
22.65%

Here is another compound to look at.
// CC(O)C(=O)N1CC(n2c(=O)n(-c3ccc(C(F)(F)F)cc3)c3nccnc32)C1 (centres unmarked) : UV (314 nm) Peak Areas Relative Abundance value = +
